tested on: 5HT3 receptor; assay: 5HT3 receptor binding test, [3H] quipazine, NG108-15 cell membrane fraction; parameters: species or system rat; conditions: 10^-7 M; inhibition of 2 nM [3H] quipazine binding
# maps each entry to its Inhibition Rate (%) (Concentration 10^-7 M)
In your response, put the unit directly after the numeric value.

# compound, result
data = [
    ("CN1[C@@H]2CCC[C@H]1C[C@@H](OC(=O)c1cnc3ccccc3c1)C2 [CSa, reference compound]", "84%"),
    ("CN1[C@@H]2CC[C@H]1C[C@@H](NC(=O)c1cnc3ccccc3c1O)C2 [Compound 6Sa]", "101%"),
]

Inquiry: Reported Inhibition Rate (%) (Concentration 10^-7 M), compound CC(C)Oc1cc(C(=O)O[C@H]2C[C@H]3CC[C@@H](C2)N3C)c2ccccc2n1 [Compound 3Sa] : ____
Reply text: 104%
